Test system: Streptococcus pyogenes C203
Test: broth micro-dilution MIC
Type: cell-based
Exercise: for every item that follows, state its recorded MIC.

These solved cases illustrate the format of a correct answer.
CNC(CC(C)C)C(=O)NC1C(=O)NC(CC(N)=O)C(=O)NC2C(=O)NC3C(=O)NC(C(=O)NC(C(=O)O)c4cc(O)cc(O)c4-c4cc3ccc4O)C(OC3CC(C)(NCc4cnc5ccccc5c4)C(O)C(C)O3)c3ccc(c(Cl)c3)Oc3cc2cc(c3OC2OC(CO)C(O)C(O)C2OC2CC(C)(NCc3cnc4ccccc4c3)C(O)C(C)O2)Oc2ccc(cc2Cl)C1O (stereo not drawn)
≤ 0.06 µg/mL
CNC(CC(C)C)C(=O)NC1C(=O)NC(CC(N)=O)C(=O)NC2C(=O)NC3C(=O)NC(C(=O)NC(C(=O)O)c4cc(O)cc(O)c4-c4cc3ccc4O)C(OC3CC(C)(N)C(O)C(C)O3)c3ccc(c(Cl)c3)Oc3cc2cc(c3OC2OC(CO)C(O)C(O)C2OC2CC(C)(NCc3cncc(-c4ccccc4)c3)C(O)C(C)O2)Oc2ccc(cc2Cl)C1O (stereo not drawn) [Compound 101]
≤ 0.06 µg/mL

Attention now turns to another entry.
The measured MIC that CC(C)CC(C(=O)NC1C(=O)NC(CC(N)=O)C(=O)NC2C(=O)NC3C(=O)NC(C(=O)NC(C(=O)O)c4cc(O)cc(O)c4-c4cc3ccc4O)C(OC3CC(C)(N)C(O)C(C)O3)c3ccc(c(Cl)c3)Oc3cc2cc(c3OC2OC(CO)C(O)C(O)C2OC2CC(C)(NCc3cccc(Oc4ccccc4)c3)C(O)C(C)O2)Oc2ccc(cc2Cl)C1O)N(C)Cc1cccc(Oc2ccccc2)c1 (stereo not drawn) showed for Streptococcus pyogenes C203 is ≤ 0.06 µg/mL

----------
Tested on: Streptococcus pyogenes C203
Experiment: broth micro-dilution MIC
Format: cell-based
readout: MIC

These solved cases illustrate the format of a correct answer.
CNC(CC(C)C)C(=O)NC1C(=O)NC(CC(N)=O)C(=O)NC2C(=O)NC3C(=O)NC(C(=O)NC(C(=O)O)c4cc(O)cc(O)c4-c4cc3ccc4O)C(OC3CC(C)(N)C(O)C(C)O3)c3ccc(c(Cl)c3)Oc3cc2cc(c3OC2OC(CO)C(O)C(O)C2OC2CC(C)(NCc3ccc4c(c3O)Cc3ccccc3-4)C(O)C(C)O2)Oc2ccc(cc2Cl)C1O (stereo not drawn)
≤ 0.06 µg/mL
CNC(CC(C)C)C(=O)NC1C(=O)NC(CC(N)=O)C(=O)NC2C(=O)NC3C(=O)NC(C(=O)NC(C(=O)O)c4cc(O)cc(O)c4-c4cc3ccc4O)C(OC3CC(C)(N)C(O)C(C)O3)c3ccc(c(Cl)c3)Oc3cc2cc(c3OC2OC(CO)C(O)C(O)C2OC2CC(C)(NCc3cc(-c4ccccc4)ccc3O)C(O)C(C)O2)Oc2ccc(cc2Cl)C1O (stereo not drawn)
≤ 0.06 µg/mL

Attention now turns to another entry.
CNC(CC(C)C)C(=O)NC1C(=O)NC(CC(N)=O)C(=O)NC2C(=O)NC3C(=O)NC(C(=O)NC(C(=O)O)c4cc(O)cc(O)c4-c4cc3ccc4O)C(OC3CC(C)(N)C(O)C(C)O3)c3ccc(c(Cl)c3)Oc3cc2cc(c3OC2OC(CO)C(O)C(O)C2OC2CC(C)(NCCc3ccc(Oc4ccccc4)cc3)C(O)C(C)O2)Oc2ccc(cc2Cl)C1O (stereo not drawn) has a reported MIC of ≤ 0.06 µg/mL
